- MEASUREMENT TARGET: KRAS (G12C)::SOS1 (Homo sapiens (Human), UniProt P01116, C118S/C51S/C80L/G12C)
- Sequence (P01116 other isoform, or with tags, fused parts or gaps G12C/C51S/C80L/C118S): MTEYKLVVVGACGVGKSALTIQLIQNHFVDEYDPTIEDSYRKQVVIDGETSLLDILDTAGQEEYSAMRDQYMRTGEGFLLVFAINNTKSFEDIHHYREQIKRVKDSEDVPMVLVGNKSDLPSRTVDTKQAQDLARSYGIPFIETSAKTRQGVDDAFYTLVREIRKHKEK
- EXPERIMENT SUMMARY: KRAS::SOS1 AlphaScreen binding assay, KRAS G12C
PROPERTY LABEL: log10 IC50 (log10 of the value in nM)
Please interpret these as log10 of IC50 where IC50 is in nM.

These recorded examples may help you get a feel for the data.
MOL	MEASUREMENT TARGET	log10 IC50
C[C@H]1CN(C)CCCN1c1nc(-c2onc3c2CCC[C@@]32CCCc3sc(N)c(C#N)c32)cc(N2CCN(C)C3(CC3)C2)n1	KRAS (G12C)::SOS1 (Homo sapiens (Human), UniProt P01116, C118S/C51S/C80L/G12C)	2.78
C[C@H](Oc1cc([C@@H]2CCOC2)nc(-c2noc3c2CCC[C@@]32CCCc3sc(N)c(C#N)c32)n1)[C@@H]1CCCN1C	KRAS (G12C)::SOS1 (Homo sapiens (Human), UniProt P01116, C118S/C51S/C80L/G12C)	0.00
CO[C@H]1CCN(C)[C@@H]1[C@H](C)Oc1cc(N2CCN(C)C3(CC3)C2)nc(-c2noc3c2CCC[C@@]32CCCc3sc(N)c(C#N)c32)n1	KRAS (G12C)::SOS1 (Homo sapiens (Human), UniProt P01116, C118S/C51S/C80L/G12C)	0.48

Query :: Consider the compound `Cc1nc(-c2cc(O[C@@H](C)[C@@H]3CCCN3C)nc(-c3onc4c3CCC[C@@]43CCCc4sc(N)c(C#N)c43)n2)cs1` and give its recorded log10 IC50.
Result :: 0.30

Query :: Consider the compound `C[C@H](Oc1cc(N2CCN(C)C3(CC3)C2)nc(-c2onc3c2CCC[C@@]32CCCc3sc(N)c(C#N)c32)n1)[C@@H]1C[C@@H](F)CN1C` and give its recorded log10 IC50.
Result :: 1.00

Query :: Consider the compound `C[C@H](Oc1cc(-c2ccn(C3CC3)n2)nc(-c2noc3c2CCC[C@@]32CCCc3sc(N)c(C#N)c32)n1)[C@@H]1CCCN1C` and give its recorded log10 IC50.
Result :: 0.30

---

- System: LOVO cells
- EXPERIMENT SUMMARY: LOVO CTG proliferation assay (120 h) (CRC, G13D)
- Type: cell-based
- CONDITION SET: Homo sapiens, CTG 120 h
Rule for this label: 1 means IC50 is less than 500 nM; -1 means IC50 is at least 500 nM.

MOLECULE	CLASS LABEL
C[C@H](Oc1cc(-n2cc3c(n2)CNC3)nc(-c2noc3c2CCC[C@@]32CCCc3sc(N)c(C#N)c32)n1)[C@@H]1C[C@@H](F)CN1C [II-154]	-1
CO[C@H]1CCN(C)[C@@H]1[C@H](C)Oc1cc(N2CCNC3(CC3)C2)nc(-c2onc3c2CCC[C@@]32CCCc3sc(N)c(C#N)c32)n1 [I-49]	1
C[C@H](Oc1cc(N2CCC(N(C)C)CC2)nc(-c2noc3c2CCC[C@@]32CCCc3sc(N)c(C#N)c32)n1)[C@@H]1CCCN1C [II-48]	-1

Query :: Does the reported IC50 of the following molecule sit strictly below 500 nM? C[C@H](Oc1cc(N2CCOC2=O)nc(-c2noc3c2CCC[C@@]32CCCc3sc(N)c(C#N)c32)n1)[C@@H]1CCCN1C [II-143]
Result :: 1

Query :: Does the reported IC50 of the following molecule sit strictly below 500 nM? C[C@H](Oc1cc(-n2ccc(-c3ccccn3)n2)nc(-c2noc3c2CCC[C@@]32CCCc3sc(N)c(C#N)c32)n1)[C@@H]1CCCN1C [II-119]
Result :: 1

Query :: Does the reported IC50 of the following molecule sit strictly below 500 nM? C[C@H](Oc1cc(-c2ccn(-c3ccccc3)n2)nc(-c2noc3c2CCC[C@@]32CCCc3sc(N)c(C#N)c32)n1)[C@@H]1CCCN1C [II-89]
Result :: 1

Query :: Does the reported IC50 of the following molecule sit strictly below 500 nM? C[C@H](Oc1cc(N2CCN3CCC3C2)nc(-c2onc3c2CCC[C@@]32CCCc3sc(N)c(C#N)c32)n1)[C@@H]1CCCN1C (stereo partly drawn) [I-9]
Result :: -1

Query :: Does the reported IC50 of the following molecule sit strictly below 500 nM? C[C@H](Oc1cc(N2C[C@@H]3[C@@H](N)[C@@H]3C2)nc(-c2noc3c2CCC[C@@]32CCCc3sc(N)c(C#N)c32)n1)[C@@H]1CCCN1C [II-167]
Result :: -1
